Target: Ataxin-2 (Homo sapiens) (UniProt Q99700)
Sequence (Q99700 whole entry): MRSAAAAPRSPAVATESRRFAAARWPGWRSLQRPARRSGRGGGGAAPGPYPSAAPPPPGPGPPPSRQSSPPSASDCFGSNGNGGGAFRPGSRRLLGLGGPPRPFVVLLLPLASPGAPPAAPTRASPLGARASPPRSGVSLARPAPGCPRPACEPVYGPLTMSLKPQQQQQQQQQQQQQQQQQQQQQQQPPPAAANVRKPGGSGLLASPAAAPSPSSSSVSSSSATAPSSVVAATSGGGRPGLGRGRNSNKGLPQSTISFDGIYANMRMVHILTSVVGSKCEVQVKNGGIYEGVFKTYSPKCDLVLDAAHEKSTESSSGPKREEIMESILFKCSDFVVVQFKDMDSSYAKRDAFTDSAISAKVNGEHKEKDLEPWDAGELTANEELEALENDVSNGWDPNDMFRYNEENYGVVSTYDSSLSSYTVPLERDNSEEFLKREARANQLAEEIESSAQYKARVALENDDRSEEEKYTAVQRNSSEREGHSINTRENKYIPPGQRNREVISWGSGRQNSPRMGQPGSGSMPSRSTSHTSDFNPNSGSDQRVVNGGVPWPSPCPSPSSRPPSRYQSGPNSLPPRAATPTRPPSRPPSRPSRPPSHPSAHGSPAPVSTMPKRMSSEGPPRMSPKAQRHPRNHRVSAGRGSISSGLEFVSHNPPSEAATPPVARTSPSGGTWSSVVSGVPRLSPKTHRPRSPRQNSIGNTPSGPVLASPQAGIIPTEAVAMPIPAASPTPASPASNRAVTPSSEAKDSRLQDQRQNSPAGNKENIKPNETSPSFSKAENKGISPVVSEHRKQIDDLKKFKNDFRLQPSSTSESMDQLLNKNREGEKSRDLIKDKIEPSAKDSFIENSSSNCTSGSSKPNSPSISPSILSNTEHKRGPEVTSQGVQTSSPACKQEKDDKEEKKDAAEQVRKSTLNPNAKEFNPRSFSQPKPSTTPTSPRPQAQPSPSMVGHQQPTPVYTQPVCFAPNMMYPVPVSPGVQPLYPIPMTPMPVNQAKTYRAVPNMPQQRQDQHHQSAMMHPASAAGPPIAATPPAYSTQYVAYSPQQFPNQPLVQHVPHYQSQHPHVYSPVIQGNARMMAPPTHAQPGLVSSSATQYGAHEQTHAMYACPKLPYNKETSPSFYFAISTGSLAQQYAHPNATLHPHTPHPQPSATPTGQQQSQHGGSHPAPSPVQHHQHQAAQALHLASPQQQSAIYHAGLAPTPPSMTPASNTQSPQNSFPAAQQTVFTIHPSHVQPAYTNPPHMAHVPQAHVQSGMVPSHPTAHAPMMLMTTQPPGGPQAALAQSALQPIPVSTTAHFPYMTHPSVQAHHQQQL
Assay: qHTS for Inhibitors of ATXN expression.
Assay type: functional
Screen size: about 400,000 compounds; about 1,900 (0.47%) were called active. Roughly 14% stayed inconclusive and do not appear here. The full list was thinned out, with actives kept by preference.
Property Measured: Potency

Answered cases to consult:
[
  {
    "Compound": "Nc1ccc2c(c1)Cc1cc([N+](=O)[O-])ccc1-2",
    "Assay Result": "inactive"
  },
  {
    "Compound": "CC[C@H](C)/C=C(C)/C=C/C1=CC2=C(Cl)C(=O)[C@](C)(OC(C)=O)C(=O)C2=CO1",
    "Assay Result": "28.2 µM (active)"
  },
  {
    "Compound": "O=C1NC(=S)NC(=O)C1=NNc1ccc2c(c1)OCCO2",
    "Assay Result": "44.7 µM (active)"
  },
  {
    "Compound": "CCC1(O)C(=O)OCc2c1cc1n(c2=O)Cc2cc3cc(O)ccc3nc2-1 (stereo not given)",
    "Assay Result": "inactive"
  }
]

List Potency for every entry below, keeping the order given.
1. N#CC1=C(N)Oc2c(c(=O)oc3ccccc23)C1c1ccc([N+](=O)[O-])o1 (stereo not given)
2. O=C(c1ccccc1)C(CN1CCCC1)c1ccccc1 (stereo not given)

inactive
25.1 µM (active)

List Potency for every entry below, keeping the order given.
1. O=C(NN1C(=O)C2C3C=CC(C4CC34)C2C1=O)c1cccc(Br)c1 (stereo not given)
2. O=C1NCN(c2ccccc2)C12CCN(C(c1cc3ccccc3o1)c1nnnn1Cc1ccccc1)CC2 (stereo not given)
3. CCn1nc(/C=C/c2ccccc2)nc2c(=O)n(C)c(=O)nc1-2
4. CC[C@@]1(O)C(=O)OCc2c1cc1n(c2=O)Cc2cc3ccccc3nc2-1

1: inactive; 2: 39.8 µM (active); 3: 10.6 µM (active); 4: 0.01 µM (active)

---

Target: Ataxin-2 (Homo sapiens)
Assay: qHTS for Inhibitors of ATXN expression.
Assay type: functional
About 1,900 (0.47%) of roughly 400,000 compounds were called active. Another 14% or so got no clear call; they are omitted. No rule for the calls is given here. Shown is part of a subset that was picked to be rich in actives.
Please state which outcome applies, choosing from 1 = active, -1 = inactive

In this assay, the call recorded for CN1C(=O)/C(=C/c2cccn2-c2ccc3ccccc3c2)C(=O)NC1=S was what?
1

In this assay, the call recorded for CCc1nc2ccc(N3CCN(C)CC3)cc2nc1CC was what?
-1

In this assay, the call recorded for Cc1cccc(C)c1-n1nnnc1C(c1cccs1)N1CCC(n2c(O)nc3ccccc32)CC1 (stereo not drawn) was what?
1

In this assay, the call recorded for COc1ccc2cc1Oc1ccc(cc1)C[C@H]1c3cc(c(OC)cc3CCN1C)Oc1c(O)c(OC)cc3c1[C@H](C2)N(C)CC3 was what?
1

In this assay, the call recorded for CC[C@@H](O)C[C@H]1CCC[C@@]2(C[C@@H]3OC(=O)/C=C/[C@@](C)(O)[C@@H](O)[C@H](C)[C@@H](O)[C@H](OC4CCC(N(C)C)C(C)O4)[C@@H](O)[C@](C)(O)CCCCC/C=C/[C@@H]4CC(C)(C)O[C@@]4(O)C[C@H](O2)[C@H]3C)O1 (stereo partly drawn) was what?
1

---

Target: Ataxin-2 (Homo sapiens)
Assay: qHTS for Inhibitors of ATXN expression.
Format: functional
About 1,900 (0.47%) of roughly 400,000 compounds were called active. Roughly 14% stayed inconclusive and do not appear here. Shown is part of a subset that was picked to be rich in actives.
Property Measured: Potency

Answered cases to consult:
[
  {
    "Compound": "CCn1cc(C(=O)NCCc2ccc(OC)c(OC)c2)c(=O)c2cc(S(=O)(=O)N(C)C3CCCCC3)ccc21",
    "Potency": "25.1 µM (active)"
  },
  {
    "Compound": "O=c1ccc2cc(OC3O[C@H](CO)[C@@H](O)[C@H](O)[C@H]3O)c(O)cc2o1 (stereo partly specified)",
    "Potency": "inactive"
  },
  {
    "Compound": "CCC(Nc1ccccc1N)=C1C(=O)NC(=O)NC1=O",
    "Potency": "inactive"
  },
  {
    "Compound": "CCCCn1c(NS(=O)(=O)c2ccc(C)cc2)c(C(=O)OCC)c2nc3ccccc3nc21",
    "Potency": "inactive"
  },
  {
    "Compound": "Cc1ccc(C[n+]2c(-c3ccc(C)cc3)cc(-c3ccc(C)cc3)cc2-c2ccc(C)cc2)cc1",
    "Potency": "12.6 µM (active)"
  }
]

List Potency for every entry below, keeping the order given.
1. COc1ccc2[nH]c(C)c(CCNCc3cn(C)c4ccccc34)c2c1
2. CCOP(=O)(OCC)c1nc(-c2cccc3ccccc23)oc1N1CCOCC1

1: 17.8 µM (active); 2: inactive

List Potency for every entry below, keeping the order given.
1. CCOC(=O)c1c(C)n(Cc2ccccc2)c2ccc(OCC(O)CNC(C)(C)C)cc12 (stereo unspecified)
2. C[C@@]12CC[C@H](O)C[C@@H]1CC[C@H]1[C@H]2CC[C@@]2(C)[C@@H](C3=CC(=O)OC3)CC[C@]12O
3. Cc1ccc(-c2cc(-c3ccc(C)cc3)[n+](-c3ccccc3)c(-c3ccc(C)cc3)c2)cc1
4. CN(c1ccc(O)cc1)c1ccc([N+](=O)[O-])c2nonc12

1. 25.1 µM (active)
2. 0.708 µM (active)
3. 17.8 µM (active)
4. 20 µM (active)
